Target: Recombinant human KIF18A (1-467 His-tagged) protein (Homo sapiens (Human), UniProt Q8NI77)
Sequence (Q8NI77 1-467): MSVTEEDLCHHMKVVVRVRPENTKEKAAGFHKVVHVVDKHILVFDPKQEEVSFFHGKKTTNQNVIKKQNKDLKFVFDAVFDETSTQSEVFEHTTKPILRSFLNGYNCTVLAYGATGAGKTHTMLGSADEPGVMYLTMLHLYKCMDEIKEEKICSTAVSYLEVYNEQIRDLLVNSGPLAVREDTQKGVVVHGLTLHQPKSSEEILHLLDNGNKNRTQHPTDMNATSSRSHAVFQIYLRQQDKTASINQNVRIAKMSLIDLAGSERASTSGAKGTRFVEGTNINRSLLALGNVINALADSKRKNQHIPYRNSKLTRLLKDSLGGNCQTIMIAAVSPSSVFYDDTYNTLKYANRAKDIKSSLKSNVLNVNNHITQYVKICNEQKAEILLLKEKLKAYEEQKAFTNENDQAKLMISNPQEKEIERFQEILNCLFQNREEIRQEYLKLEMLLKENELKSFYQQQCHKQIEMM
Sequence (P02550 whole entry partner): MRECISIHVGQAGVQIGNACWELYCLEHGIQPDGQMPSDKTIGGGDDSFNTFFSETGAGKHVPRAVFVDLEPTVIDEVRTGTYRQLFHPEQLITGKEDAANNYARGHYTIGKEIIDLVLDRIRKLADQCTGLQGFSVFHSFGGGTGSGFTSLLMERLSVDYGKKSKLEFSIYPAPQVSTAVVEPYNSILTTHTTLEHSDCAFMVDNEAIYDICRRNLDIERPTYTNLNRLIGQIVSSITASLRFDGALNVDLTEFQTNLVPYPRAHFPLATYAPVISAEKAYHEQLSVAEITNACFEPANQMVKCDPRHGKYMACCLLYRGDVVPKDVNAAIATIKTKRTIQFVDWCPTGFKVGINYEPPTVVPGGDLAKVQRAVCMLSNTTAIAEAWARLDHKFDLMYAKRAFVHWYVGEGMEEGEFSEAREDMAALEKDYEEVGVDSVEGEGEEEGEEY
Sequence (P02554 whole entry partner): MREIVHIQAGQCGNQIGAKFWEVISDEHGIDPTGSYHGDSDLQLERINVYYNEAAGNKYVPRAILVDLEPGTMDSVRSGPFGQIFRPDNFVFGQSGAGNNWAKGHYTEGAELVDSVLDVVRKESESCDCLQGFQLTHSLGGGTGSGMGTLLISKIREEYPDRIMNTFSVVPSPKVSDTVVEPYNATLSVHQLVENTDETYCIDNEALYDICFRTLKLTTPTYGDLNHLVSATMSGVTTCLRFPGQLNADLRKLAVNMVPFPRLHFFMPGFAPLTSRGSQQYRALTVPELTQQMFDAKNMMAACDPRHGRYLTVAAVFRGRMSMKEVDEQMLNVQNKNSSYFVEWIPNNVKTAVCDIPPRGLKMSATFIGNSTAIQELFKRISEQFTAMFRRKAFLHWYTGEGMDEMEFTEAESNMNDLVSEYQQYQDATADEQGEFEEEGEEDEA
Assay: KIF18A Enzyme Assay: microtubule-stimulated ATPase activity (ADP-Glo)
Conditions: read-out: KIF18A ATPase IC50; 30 nM KIF18A, 30 μg/mL pig microtubules, ATP at Km 75 μM, ADP-Glo luminescence
EXPERIMENTAL_READOUT: IC50 (nM)

A: Cc1cc(NC(=O)c2cc(F)c(NS(=O)(=O)CCO)cc2N2CCC3(CC2)CC3)nc(N2CCO[C@H](C)C2)n1 [Example 9-2]
B: Cc1cc(NC(=O)c2ccc(NS(=O)(=O)CCO)cc2N2CCC3(CC2)CC3)nc(N2CC(F)C2)n1 [Example 11-5]
Would you kindly point out which of A and B has the smaller IC50 figure? # reply format: chosen label
B
(B: 32 nM, A: 158 nM)

====

Target: Recombinant human KIF18A (1-467 His-tagged) protein (Homo sapiens (Human))
Assay: KIF18A Enzyme Assay: microtubule-stimulated ATPase activity (ADP-Glo)
Details: read-out: KIF18A ATPase IC50; 30 nM KIF18A, 30 μg/mL pig microtubules, ATP at Km 75 μM, ADP-Glo luminescence
EXPERIMENTAL_READOUT: IC50 (nM)

Cc1cc(NC(=O)c2ccc(NS(=O)(=O)CCO)cc2N2CCC3(CC2)CC3)nc(N2CC([C@H](C)O)C2)n1 [Example 11-21]: 704
O=C(Nc1cc(C2CC2)nc(N2CCC(F)(F)CC2)n1)c1ccc(NS(=O)(=O)CCO)cc1N1CCC2(CC1)CC2 [Example 6-39]: 225

I: Cc1cc(NC(=O)c2ccc(NS(=O)(=O)CF)cc2N2CCC3(CC2)CC3)nc(N2CCO[C@H](C)C2)n1 [Example 6-3]
II: Cc1cc(NC(=O)c2ccc(NS(=O)(=O)CCO)cc2N2CCC3(CC2)CC3)nc(N2CCC[C@H](C#N)C2)n1 [Example 11-35]
Would you kindly point out which of I and II has the smaller IC50 figure? # reply format: chosen label
II
(II: 43 nM, I: 79 nM)

====

Target: Recombinant human KIF18A (1-467 His-tagged) protein (Homo sapiens (Human), UniProt Q8NI77)
Assay: KIF18A Enzyme Assay: microtubule-stimulated ATPase activity (ADP-Glo)
Settings: read-out: KIF18A ATPase IC50; 30 nM KIF18A, 30 μg/mL pig microtubules, ATP at Km 75 μM, ADP-Glo luminescence
pIC50: −log10 of the molar value.
EXPERIMENTAL_READOUT: pIC50

Cc1cc(NC(=O)c2ccc(NS(=O)(=O)CC3(O)COC3)cc2N2CCC3(CC2)CC3)nc(N2CCC(F)(F)CC2)n1: 7.41
Cc1cc(NC(=O)c2ccc([S@](=N)(=O)C3CC3)cc2N2CCC3(CC2)CC3)nc(N2CCO[C@H](C)C2)n1: 6.71
C[C@@H]1CN(c2nccc(NC(=O)c3ccc(S(=O)(=O)NC4(C)COC4)cc3N3CCC4(CC3)CC4)n2)CCO1: 7.17
Cc1cc(NC(=O)c2ccc(NS(=O)(=O)CCO)cc2N2CCC3(CC2)CC3)nc(N2CCC3(CC2)CC3)n1: 6.84

I: Cc1cc(NC(=O)c2ccc(NS(=O)(=O)CCO)cc2N2CCC3(CC2)CC3)nc(N2CCCCC2)n1
II: Cc1cc(NC(=O)c2ccc(S(=O)(=O)C3CNC3)cc2N2CCC3(CC2)CC3)nc(N2CCC(F)(F)CC2)n1
Hi, I'm comparing I with II and wondering which one has the bigger number for pIC50. Any idea? # reply format: chosen label
II
(II: 7.40, I: 7.09)

Taken from patent US11236069B2.
